Read-out: NAD(P)H dehydrogenase [quinone] 1 (NQO1), NQO1 (gene 1728)
Test: LTEA_HepaRG_NQO1: Life Technologies and Expression Analysis (LTEA) Assay for NAD(P)H dehydrogenase [quinone] 1 (NQO1) using HepaRG (AID 2283526)
Conditions: mRNA level, 48 h; actives raise or lower the signal
The source made the active and inactive calls. Rule for the calls: active = hit-call score of the fitted dose curve at least 0.9, where 1 is the maximum; inactive = score below 0.9.
Measured attribute: outcome

Check out these entries, answers already filled in.
compound="CCOP(=S)(Oc1cnc(C(C)(C)C)nc1)OC(C)C (configuration not stated)" measured_attribute=outcome value_reported=inactive
compound=C[N+]1(C)CCCCC1 measured_attribute=outcome value_reported=inactive
compound="CCc1cnc(C2=NC(C)(C(C)C)C(=O)N2)c(C(=O)O)c1 (configuration not stated)" measured_attribute=outcome value_reported=inactive
compound=CCCOCC(=Nc1ccc(Cl)cc1C(F)(F)F)n1ccnc1 measured_attribute=outcome value_reported=inactive
compound=CCc1cccc(CC)c1N(COC)C(=O)CCl measured_attribute=outcome value_reported=inactive

Notebook: CCOC(=O)CC(SP(=O)(OC)OC)C(=O)OCC (configuration not stated) , outcome read as inactive

Form: compound = CSC1=N[C@@](C)(c2ccccc2)C(=O)N1Nc1ccccc1 ; outcome = inactive

Value of outcome reported for the compound CN(C)[C@@H]1C(=O)C(C(N)=O)=C(O)[C@@]2(O)C(=O)C3=C(O)c4c(O)cccc4[C@@](C)(O)[C@H]3[C@H](O)[C@@H]12 is inactive

Consider CC1(C(=O)Nc2ccc(O)c(Cl)c2Cl)CCCCC1 . Its measured outcome is inactive

Lab note: N#CSCSC#N gave outcome of inactive

Given item CCC(CC)Nc1c([N+](=O)[O-])cc(C)c(C)c1[N+](=O)[O-] , the value recorded as its outcome is inactive

Measured outcome, FC(F)C(F)(F)OCC(Cn1cncn1)c1ccc(Cl)cc1Cl (configuration not stated) : inactive

Where do these numbers come from? They come from PubChem BioAssay (EPA / NIEHS).
